# experimental_target: T1, human IgEλ (U266 derived) (human, UniProt P01854-1 1-428)
# T1 construct: Whole IgE purified from U266 cells (Ikeyama et al. 1986); labelled with europium cryptate or biotin in some assays; also called human IgE (U266-derived); human IgE lambda
# T1 sequence (P01854 other isoform, or with tags, fused parts or gaps): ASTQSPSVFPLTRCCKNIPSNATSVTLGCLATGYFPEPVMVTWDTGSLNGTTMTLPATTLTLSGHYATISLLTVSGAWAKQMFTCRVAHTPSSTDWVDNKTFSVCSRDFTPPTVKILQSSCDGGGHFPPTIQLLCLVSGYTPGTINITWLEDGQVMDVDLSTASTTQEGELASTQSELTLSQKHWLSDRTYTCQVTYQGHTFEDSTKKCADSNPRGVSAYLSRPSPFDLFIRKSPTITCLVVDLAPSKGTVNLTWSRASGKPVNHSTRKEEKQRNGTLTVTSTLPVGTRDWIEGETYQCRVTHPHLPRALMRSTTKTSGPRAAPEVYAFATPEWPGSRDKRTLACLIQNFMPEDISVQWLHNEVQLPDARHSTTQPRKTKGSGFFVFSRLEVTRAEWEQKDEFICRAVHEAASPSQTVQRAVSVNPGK
# experiment: SPR (BIAcore 2000): IgG captured on protein G', IgE as analyte, bivalent analyte model; geomean
pKd by entry:
On this scale, pKd is minus log10 of a concentration expressed in M (mol/L).

INPUT: Bench note: what pKd did Antibody 16 IgG (antibody, V domains shown, Whole human IgG (section 1.4: IgG1)) VH: QVQLVQSGAEVKKPGATVKLSCKVYGYIFTDYNIYWVRQAPGKGLEWMGLIDPDNGETFYAEKFQGRATMTADTSSDRAYMELTSLTFEDTATYYCATVSLKSAKGGYDYWGRGTLVTVSS VL: QSVLTQPPSVSGAPGQRVTISCTGSSSNIGAGYDVHWYQQLPGTAPKLLIYDNFNRPSGVPDRFSGSKSGTSASLAIIGLQTEDEADYYCQSYDSRHHHAPFGTGTKLTVL show?
OUTPUT: 8.34

Continuing:
INPUT: Requested read-out: pKd. Entry: Antibody 18 IgG (antibody, V domains shown, Whole human IgG (section 1.4: IgG1)) VH: QVQLVQSGAEVKKPGATVKLSCKVYGYIFTDYNIYWVRQAPGKGLEWMGLIDPDNGETFYAEKFQGRATMTADTSSDRAYMELTSLTFEDTATYYCATVLLRSAKGGYDYWGRGTLVTVSS VL: QSVLTQPPSVSGAPGQRVTISCTGSSSNIGAGYDVHWYQQLPGTAPKLLIYDNFNRPSGVPDRFSGSKSGTSASLAIIGLQTEDEADYYCQSYDSHLQLSPFGTGTKLTVL
OUTPUT: 8.10

INPUT: Also need Antibody 5 IgG (antibody, V domains shown, Whole human IgG (section 1.4: IgG1)) VH: QVQLVQSGAEVKKPGATVKLSCKVYGYIFTDYNIYWVRQAPGKGLEWMGLIDPDNGETFYAEKFQGRATMTADTSSDRAYMELTSLTFEDTATYYCATVMGKWIKGGYDYWGRGTLVTVSS VL: QSVLTQPPSVSGAPGQRVTISCTGSSSNIGAGYDVHWYQQLPGTAPKLLIYDNFNRPSGVPDRFSGSKSGTSASLAIIGLQTEDEADYYCQSYDSTKHTSPFGTGTKLTVL , thanks.
OUTPUT: 8.62

All values here come from patent US20090060919A1.
